Data credit: ChEMBL document CHEMBL1137862

- system_under_test: Adenosine receptor A2a (Rattus norvegicus)
- Sequence (P30543 whole entry): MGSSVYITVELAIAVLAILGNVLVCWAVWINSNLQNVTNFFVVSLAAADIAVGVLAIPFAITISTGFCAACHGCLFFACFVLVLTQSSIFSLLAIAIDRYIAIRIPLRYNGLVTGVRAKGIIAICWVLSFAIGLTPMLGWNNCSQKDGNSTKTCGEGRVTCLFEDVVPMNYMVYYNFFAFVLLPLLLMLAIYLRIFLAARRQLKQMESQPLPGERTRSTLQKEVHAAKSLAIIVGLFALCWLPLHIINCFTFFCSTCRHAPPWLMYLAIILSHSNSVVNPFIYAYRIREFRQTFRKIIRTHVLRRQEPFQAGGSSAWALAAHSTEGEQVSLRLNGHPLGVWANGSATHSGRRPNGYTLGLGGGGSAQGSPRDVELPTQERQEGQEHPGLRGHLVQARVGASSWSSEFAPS
- measurement_notes: Binding affinity against Adenosine A2a receptor from rat brain tissue was determined using [3H]ZM-241385 as radioligand
In this section we review reported Ki values for a set of compounds.

query_smiles: Nc1nc(NC[C@H]2CCCN2Cc2ccccc2F)cc2nc(-c3ccco3)nn12
Ki / nM: 127
--
query_smiles: Cc1cc(CN2CCC[C@@H]2CN(C)c2cc3nc(-c4ccco4)nn3c(N)n2)no1
Ki / nM: 19
--
query_smiles: Nc1nc(NC[C@H]2CCCN2Cc2ccncc2)cc2nc(-c3ccco3)nn12
Ki / nM: 100
--
query_smiles: Nc1nc(NC[C@H]2CCCN2Cc2ccnc(Cl)c2)cc2nc(-c3ccco3)nn12
Ki / nM: 10
--
query_smiles: Cc1cc(CN2CCC[C@@H]2CN(C)c2nc(N)n3nc(-c4ccco4)nc3n2)no1
Ki / nM: 12
--
query_smiles: Cc1cc(CN2CCC[C@@H]2CNc2nc(N)n3nc(-c4ccco4)nc3n2)no1
Ki / nM: 25
--
query_smiles: Nc1cc(NC[C@H]2CCCN2Cc2c(Cl)cccc2Cl)nc2nc(-c3ccco3)nn12
Ki / nM: 659
--
query_smiles: Cc1cc(CN2CCC[C@@H]2CN(C)c2cc(N)n3nc(-c4ccco4)nc3n2)no1
Ki / nM: 11
--
query_smiles: Nc1nc(NC[C@H]2CCCN2Cc2c(Cl)cncc2Cl)cc2nc(-c3ccco3)nn12
Ki / nM: 366
--
query_smiles: Nc1nc(NC[C@H]2CCCN2Cc2c(Cl)cccc2Cl)cc2nc(-c3ccco3)nn12
Ki / nM: 312
--
query_smiles: Nc1nc(NC[C@H]2CCCN2Cc2ccnc(Cl)c2)nc2nc(-c3ccco3)nn12
Ki / nM: 4
